All values here come from patent US20260130395A1.

Assay: Stability of cannabinoid entourage and Vitamin E components of the powder concentrate by LCMSMS
Format: physicochemical
Conditions: powder stored at 21-25° C.; 11 days
Task for the reader: assign each of the following compounds its reported Stability of Plant-Derived Cannabinoid Compounds in Powder Concentrate.
Express the result in mg/g powder but write the number alone.

Query string: Fill blank: measured Stability of Plant-Derived Cannabinoid Compounds in Powder Concentrate of the compound C=C(C)[C@@H]1CCC(C)=C[C@H]1c1c(O)cc(CCC)cc1O [CBDV, cannabidivarin] is ____.
Result string: 0.051

Query string: Fill blank: measured Stability of Plant-Derived Cannabinoid Compounds in Powder Concentrate of the compound C=C(C)[C@@H]1CCC(C)=C[C@H]1c1c(O)cc(CCCCC)cc1O [CBD, cannabidiol, reference compound] is ____.
Result string: 6.00

Query string: Fill blank: measured Stability of Plant-Derived Cannabinoid Compounds in Powder Concentrate of the compound CCCc1cc(O)c2c(c1)OC(C)(C)[C@@H]1CCC(C)=C[C@@H]21 [THCV, delta-9-tetrahydrocannabivarin] is ____.
Result string: 0.708

Query string: Fill blank: measured Stability of Plant-Derived Cannabinoid Compounds in Powder Concentrate of the compound CCCCCc1cc2c(c(O)c1C(=O)O)[C@@H]1C=C(C)CC[C@H]1C(C)(C)O2 [D9 THCA, delta-9-tetrahydrocannabinolic acid] is ____.
Result string: 0.145

Query string: Fill blank: measured Stability of Plant-Derived Cannabinoid Compounds in Powder Concentrate of the compound CCCCCc1cc(O)c2c(c1)OC1(C)CCC3C1C2C3(C)C (stereo not shown) [CBL, cannabicyclol] is ____.
Result string: 0.052

Query string: Fill blank: measured Stability of Plant-Derived Cannabinoid Compounds in Powder Concentrate of the compound CCCCCc1cc(O)c2c(c1)OC(C)(C)[C@@H]1CCC(C)=C[C@@H]21 [D9 THC, delta-9-tetrahydrocannabinol, reference compound] is ____.
Result string: 2.58

Query string: Fill blank: measured Stability of Plant-Derived Cannabinoid Compounds in Powder Concentrate of the compound CCCCCc1cc(O)c2c(c1)OC(C)(C)c1ccc(C)cc1-2 [CBN, cannabinol] is ____.
Result string: 0.494

Query string: Fill blank: measured Stability of Plant-Derived Cannabinoid Compounds in Powder Concentrate of the compound C=C(C)[C@@H]1CCC(C)=C[C@H]1c1c(O)cc(CCCCC)c(C(=O)O)c1O [CBDA, cannabidiolic acid] is ____.
Result string: 0.415

Query string: Fill blank: measured Stability of Plant-Derived Cannabinoid Compounds in Powder Concentrate of the compound CCCCCc1cc(O)c2c(c1)OC(C)(CCC=C(C)C)C=C2 (stereo not shown) [CBC, cannabichromene] is ____.
Result string: 0.071

Query string: Fill blank: measured Stability of Plant-Derived Cannabinoid Compounds in Powder Concentrate of the compound CCCCCc1cc(O)c(C/C=C(\C)CCC=C(C)C)c(O)c1 [CBG, cannabigerol] is ____.
Result string: 1.14

----------
Test: Stability of cannabinoid compounds and Vitamin E components in Beverage 2 (AB Red) by LCMSMS
Format: physicochemical
Conditions: stored at 8° C., 15 days
Class boundaries, taken from values of Stability of Plant-Derived Cannabinoid Compounds in AB Red, are as follows: LOW = under 0.5 µg/mL, MEDIUM = from 0.5 µg/mL up to 3 µg/mL, HIGH = 3 µg/mL and over

Query string: Returns: class label. Input: `C=C(C)[C@@H]1CCC(C)=C[C@H]1c1c(O)cc(CCCCC)c(C(=O)O)c1O`
Result string: MEDIUM

Query string: Returns: class label. Input: CCCCCc1cc(O)c2c(c1)OC(C)(CCC=C(C)C)C=C2 (stereo not drawn)
Result string: LOW

Query string: Returns: class label. Input: `CCCCCc1cc(O)c(C/C=C(\C)CCC=C(C)C)c(O)c1`
Result string: HIGH

Query string: Returns: class label. Input: `C=C(C)[C@@H]1CCC(C)=C[C@H]1c1c(O)cc(CCC)cc1O`
Result string: LOW

Query string: Returns: class label. Input: CCCCCc1cc(O)c2c(c1)OC(C)(C)[C@@H]1CCC(C)=C[C@@H]21 [D9 THC, delta-9-tetrahydrocannabinol, reference compound]
Result string: HIGH

Query string: Returns: class label. Input: `CCCCCc1cc(O)c2c(c1)OC(C)(C)c1ccc(C)cc1-2`
Result string: MEDIUM

Query string: Returns: class label. Input: CCCc1cc(O)c2c(c1)OC(C)(C)[C@@H]1CCC(C)=C[C@@H]21 [THCV, delta-9-tetrahydrocannabivarin]
Result string: HIGH

Query string: Returns: class label. Input: CCCCCc1cc2c(c(O)c1C(=O)O)[C@@H]1C=C(C)CC[C@H]1C(C)(C)O2 [D9 THCA, delta-9-tetrahydrocannabinolic acid]
Result string: MEDIUM

----------
Test: Stability of cannabinoid compounds and Vitamin E components in Beverage 1 (AB White) by LCMSMS
Format: physicochemical
Conditions: AB White stored at 21-25° C.; 15 days
Task for the reader: assign each of the following compounds its reported Stability of Plant-Derived Cannabinoid Compounds in AB White, 21-25° C..
Express the result in µg/mL but write the number alone.

Query string: Fill blank: measured Stability of Plant-Derived Cannabinoid Compounds in AB White, 21-25° C. of the compound CCCCCc1cc(O)c2c(c1)OC(C)(C)[C@@H]1CCC(C)=C[C@@H]21 [D9 THC, delta-9-tetrahydrocannabinol, reference compound] is ____.
Result string: 12.1

Query string: Fill blank: measured Stability of Plant-Derived Cannabinoid Compounds in AB White, 21-25° C. of the compound CCCCCc1cc(O)c2c(c1)OC(C)(CCC=C(C)C)C=C2 (stereo not drawn) [CBC, cannabichromene] is ____.
Result string: 0.311

Query string: Fill blank: measured Stability of Plant-Derived Cannabinoid Compounds in AB White, 21-25° C. of the compound CCCCCc1cc(O)c2c(c1)OC(C)(C)c1ccc(C)cc1-2 [CBN, cannabinol] is ____.
Result string: 2.81

Query string: Fill blank: measured Stability of Plant-Derived Cannabinoid Compounds in AB White, 21-25° C. of the compound CCCCCc1cc2c(c(O)c1C(=O)O)[C@@H]1C=C(C)CC[C@H]1C(C)(C)O2 [D9 THCA, delta-9-tetrahydrocannabinolic acid] is ____.
Result string: 0.948

Query string: Fill blank: measured Stability of Plant-Derived Cannabinoid Compounds in AB White, 21-25° C. of the compound CCCc1cc(O)c2c(c1)OC(C)(C)[C@@H]1CCC(C)=C[C@@H]21 [THCV, delta-9-tetrahydrocannabivarin] is ____.
Result string: 3.48

Query string: Fill blank: measured Stability of Plant-Derived Cannabinoid Compounds in AB White, 21-25° C. of the compound C=C(C)[C@@H]1CCC(C)=C[C@H]1c1c(O)cc(CCCCC)c(C(=O)O)c1O [CBDA, cannabidiolic acid] is ____.
Result string: 1.69

Query string: Fill blank: measured Stability of Plant-Derived Cannabinoid Compounds in AB White, 21-25° C. of the compound CCCCCc1cc(O)c2c(c1)OC1(C)CCC3C1C2C3(C)C (stereo not drawn) [CBL, cannabicyclol] is ____.
Result string: 0.548

Query string: Fill blank: measured Stability of Plant-Derived Cannabinoid Compounds in AB White, 21-25° C. of the compound CCCCCc1cc(O)c(C/C=C(\C)CCC=C(C)C)c(O)c1 [CBG, cannabigerol] is ____.
Result string: 4.87

Query string: Fill blank: measured Stability of Plant-Derived Cannabinoid Compounds in AB White, 21-25° C. of the compound C=C(C)[C@@H]1CCC(C)=C[C@H]1c1c(O)cc(CCC)cc1O [CBDV, cannabidivarin] is ____.
Result string: 0.151

----------
Task for the reader: assign each of the following compounds its reported Stability of Plant-Derived Cannabinoid Compounds in AB Red.
Assay: Stability of cannabinoid compounds and Vitamin E components in Beverage 2 (AB Red) by LCMSMS
Assay type: physicochemical
Conditions: stored at 21-25° C., 8 days
Express the result in µg/mL but write the number alone.

Query string: Fill blank: measured Stability of Plant-Derived Cannabinoid Compounds in AB Red of the compound `CCCCCc1cc(O)c(C/C=C(\C)CCC=C(C)C)c(O)c1` is ____.
Result string: 4.66

Query string: Fill blank: measured Stability of Plant-Derived Cannabinoid Compounds in AB Red of the compound CCCCCc1cc2c(c(O)c1C(=O)O)[C@@H]1C=C(C)CC[C@H]1C(C)(C)O2 [D9 THCA, delta-9-tetrahydrocannabinolic acid] is ____.
Result string: 1.36

Query string: Fill blank: measured Stability of Plant-Derived Cannabinoid Compounds in AB Red of the compound CCCCCc1cc(O)c2c(c1)OC(C)(C)[C@@H]1CCC(C)=C[C@@H]21 [D9 THC, delta-9-tetrahydrocannabinol, reference compound] is ____.
Result string: 12.7

Query string: Fill blank: measured Stability of Plant-Derived Cannabinoid Compounds in AB Red of the compound `C=C(C)[C@@H]1CCC(C)=C[C@H]1c1c(O)cc(CCC)cc1O` is ____.
Result string: 0.20

Query string: Fill blank: measured Stability of Plant-Derived Cannabinoid Compounds in AB Red of the compound `C=C(C)[C@@H]1CCC(C)=C[C@H]1c1c(O)cc(CCCCC)c(C(=O)O)c1O` is ____.
Result string: 1.64

Query string: Fill blank: measured Stability of Plant-Derived Cannabinoid Compounds in AB Red of the compound `CCCCCc1cc(O)c2c(c1)OC(C)(C)c1ccc(C)cc1-2` is ____.
Result string: 2.74

Query string: Fill blank: measured Stability of Plant-Derived Cannabinoid Compounds in AB Red of the compound CCCc1cc(O)c2c(c1)OC(C)(C)[C@@H]1CCC(C)=C[C@@H]21 [THCV, delta-9-tetrahydrocannabivarin] is ____.
Result string: 3.19

Query string: Fill blank: measured Stability of Plant-Derived Cannabinoid Compounds in AB Red of the compound CCCCCc1cc(O)c2c(c1)OC1(C)CCC3C1C2C3(C)C (stereo not drawn) is ____.
Result string: 0.50

Query string: Fill blank: measured Stability of Plant-Derived Cannabinoid Compounds in AB Red of the compound CCCCCc1cc(O)c2c(c1)OC(C)(CCC=C(C)C)C=C2 (stereo not drawn) is ____.
Result string: 0.28
